Molecular target: KAT6A (Homo sapiens, UniProt Q92794)
Sequence (Q92794 488-778): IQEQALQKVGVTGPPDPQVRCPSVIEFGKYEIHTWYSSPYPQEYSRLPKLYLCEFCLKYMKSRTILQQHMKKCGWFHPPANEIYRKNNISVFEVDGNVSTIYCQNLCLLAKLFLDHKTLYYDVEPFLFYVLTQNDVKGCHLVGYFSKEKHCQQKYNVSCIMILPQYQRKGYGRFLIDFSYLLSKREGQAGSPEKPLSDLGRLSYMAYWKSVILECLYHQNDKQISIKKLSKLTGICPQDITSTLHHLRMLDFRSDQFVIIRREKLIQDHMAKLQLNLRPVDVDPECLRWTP
ASSAY ENDPOINT: pIC50
Expect pIC50 as a plain number equal to -log10 of the molar concentration.

pIC50 lookup needed for CC1=NN(c2ccc(C(=O)O)cc2)C(=O)/C1=C\c1ccc(-c2cc(C)c(C)cc2[N+](=O)[O-])o1 [VII (C646), reference compound] , thanks.
4.82

----------
Test system: H1299 cells
Assay: MTT cell proliferation assay, H1299
Format: cell-based, human
Conditions: Homo sapiens, NCI-H1299; 72 h treatment, MTT
In this section we review reported IC50 values for a set of compounds.

O=C(O)c1ccc(N2N=C(c3ccccc3)/C(=C/c3ccc[nH]3)C2=O)cc1 [Compound 34]; 41.6 µM

IC50 lookup needed for CC1=NN(c2ccc(C(=O)O)cc2)C(=O)/C1=C\c1ccc[nH]1 [Compound 19] , thanks.
52.1 µM
